Molecular target: T1, human B7-H4 (purified monomeric recombinant human protein, ACRO biosystems) (human, UniProt Q7Z7D3 29-258, limits assumed, chemically biotinylated (EZ-Link NHS-LC-Biotin) in the yeast display and competition experiments; non-biotinylated in SPR)
T1 construct: Bought recombinant monomeric protein; also called B7x; B7S1
T1 sequence: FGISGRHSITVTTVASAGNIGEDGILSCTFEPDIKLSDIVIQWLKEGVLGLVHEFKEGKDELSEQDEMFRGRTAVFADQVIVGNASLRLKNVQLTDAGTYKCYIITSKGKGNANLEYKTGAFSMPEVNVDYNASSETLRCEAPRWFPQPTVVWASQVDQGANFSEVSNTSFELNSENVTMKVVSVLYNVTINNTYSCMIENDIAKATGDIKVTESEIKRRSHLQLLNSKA
Test: SPR (Carterra LSA); scFv-Fc captured on anti-human IgG Fc, antigen injected
Measured Quantity: Kd (nM)
Answers are plain numbers, in nM.

Binder | Measurement Units | Kd
A09 scFv-Fc (scFv, V domains shown, Tested as scFv-Fc fusion (human IgG1 Fc, vector pDNL9) in crude yeast supernatant; Combo 2 library) VH: EVQLVESGGGVVQPGRSLRLSCAASGFTFSSRSMNWVRQAPGKGLEWVSAISGSGLTSYYADSVKGRFTISRDNSKNTLYLQMNSLRAEDTAVYYCARKRWYGMDVWGQGTTVTVSS VL: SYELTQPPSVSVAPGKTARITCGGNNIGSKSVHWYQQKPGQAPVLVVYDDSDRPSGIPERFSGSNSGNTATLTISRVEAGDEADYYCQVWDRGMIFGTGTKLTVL | nM | 0.074
A08 scFv-Fc (scFv, V domains shown, Tested as scFv-Fc fusion (human IgG1 Fc, vector pDNL9) in crude yeast supernatant; Combo 2 library) VH: EVQLVESGGGVVQPGRSLRLSCAASGFTFGDRAMNWVRQAPGKGLEWVSAISSSGTTSYYADSVKGRFTISRDNSKNTLYLQMNSLRAEDTAVYYCARKRWYGMDVWGQGTTVTVSS VL: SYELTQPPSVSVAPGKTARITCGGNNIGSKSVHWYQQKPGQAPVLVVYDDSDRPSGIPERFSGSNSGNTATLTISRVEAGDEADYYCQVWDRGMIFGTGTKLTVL | nM | 0.043

Next, consider the following binder.
Request: Tell us which Kd value is on record for B11 scFv-Fc (scFv, V domains shown, Tested as scFv-Fc fusion (human IgG1 Fc, vector pDNL9) in crude yeast supernatant; Combo 2 library) VH: EVQLVESGGGVVQPGRSLRLSCAASGFTFTSRAMNWVRQAPGKGLEWVSAISGSGATAYYADSVKGRFTISRDNSKNTLYLQMNSLRAEDTAVYYCARKRWYGMDVWGQGTTVTVSS VL: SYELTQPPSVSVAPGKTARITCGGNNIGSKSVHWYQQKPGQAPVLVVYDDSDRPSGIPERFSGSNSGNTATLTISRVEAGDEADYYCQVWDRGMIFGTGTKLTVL
Result: 0.068
